[
  {
    "compound": "COC12OC1(c1ccc(C(F)(F)F)n(C)c1=O)C=NN(C)C2=O (centres unmarked)",
    "melting point": "128 to 130 °C"
  },
  {
    "compound": "COC12OC1(c1cc3cccnc3nc1C(F)(F)F)C=NN(C)C2=O (centres unmarked)",
    "melting point": "203 to 210 °C"
  },
  {
    "compound": "COC12OC1(c1cc3ccncc3n(-c3ccc(F)cc3)c1=O)C=NN(C)C2=O (centres unmarked)",
    "melting point": "175 to 179 °C"
  },
  {
    "compound": "COC12OC1(c1ccc(C(F)(F)F)c3ncccc13)C=NN(C)C2=O (centres unmarked)",
    "melting point": "171 to 172 °C"
  },
  {
    "compound": "COC12OC1(c1nn(C)c(=O)c(C)c1Cl)C=NN(C)C2=O (centres unmarked)",
    "melting point": "153 to 155 °C"
  },
  {
    "compound": "COC12OC1(c1cn(C)c(=O)n(-c3ccc(F)cc3)c1=O)C=NN(C)C2=O (centres unmarked)",
    "melting point": "191 to 194 °C"
  },
  {
    "compound": "COC12OC1(c1cc3cccnc3c(Cl)c1C(F)(F)F)C=NN(C)C2=O (centres unmarked)",
    "melting point": "238 to 239 °C"
  },
  {
    "compound": "COC12OC1(c1nn(C)c(=O)n(-c3ccc(F)cc3)c1=O)C=NN(C)C2=O (centres unmarked)",
    "melting point": "180 to 182 °C"
  }
]
